test: Cytotoxicity against mammalian cells (MTT assay); format: cell-based; settings: mouse, NCTC clone 929 cells, highest concentration 200 μM
Parameter CC50 at 48 h: see the listing below.

What measured CC50 at 48 h goes with `CCCCCCCCC#CCCCCCCCCCC[C@@H]1C(=O)O[C@H](C)[C@@H]1OC(C)=O` ?
> 200 µM

Now consider `CCCCCCCCC#CCCCCCCCCCCC1=C[C@@H](C)OC1=O` and answer again.
> 200 µM

Now consider CCCCCCCCCCCCCCCCOP(=O)([O-])OCC[N+](C)(C)C [Miltefosine, reference compound] and answer again.
116 µM

Now consider CCCCCCCCCCCCCCCCCCCCC1C(=O)OC(C)C1O (stereo not shown) and answer again.
> 200 µM

Now consider CCCCCCCCCCCCCCCCCCCCC1C(=O)OC(C)C1OC(C)=O (stereo not shown) and answer again.
> 200 µM

Now consider CCCCCCCCCCCCCCCCCCCCC1=C[C@@H](C)OC1=O [Compound 3b, 4R-Methyl-2-(n-eicosanil)but-2-enolide] and answer again.
> 200 µM

====

tested on: intracellular amastigote forms of Leishmania (L.) infantum; test: Activity against L. (L.) infantum intracellular amastigotes in infected peritoneal macrophages; assay type: cell-based; conditions: intracellular amastigotes in BALB/c peritoneal macrophages, 100 to 0.78 μM, 96 h; NA: non-active; read-out: IC50 L. (L.) infantum
experimental-endpoint: IC50 (µM)
Supply the numeric figure in µM, leaving out any unit text.

What measured IC50 goes with `C=CCCCCCCC#CCCCCCCCCCC[C@@H]1C(=O)O[C@H](C)[C@@H]1OC(C)=O` ?
43.4

====

Parameter SI (selectivity index): see the listing below.
Tested on: intracellular amastigote forms of Leishmania (L.) infantum
Assay: Activity against L. (L.) infantum intracellular amastigotes in infected peritoneal macrophages
Assay type: cell-based
Details: CC50 NCTC cells/IC50 parasites
Method: L. (L.) infantum (MHOM/BR/1972/LD) was maintained through successive passages in golden hamsters up to 60–70 days post-infection. Amastigotes were harvested from spleens of infected hamsters by differential centrifugation. […] The data obtained represent the mean and standard deviation of duplicate samples from at least three independent assays. IC50 and CC50 values were calculated using sigmoid dose–response curves in Graph Pad Prism 5.0 software (GraphPad Software, San Diego, CA, USA).

Would you please look over these solved cases?
INSERT INTO measurements (compound, experimental_value) VALUES
  ('CCCCCCCCCCCCCCCCOP(=O)([O-])OCC[N+](C)(C)C [Miltefosine, reference compound]', 6.5),
  ('C=CCCCCCCC#CCCCCCCCCCC[C@@H]1C(=O)O[C@H](C)[C@@H]1O [Compound 1]', '>6.7');

What measured SI (selectivity index) goes with C=CCCCCCCC#CCCCCCCCCCCC1=C[C@@H](C)OC1=O [Compound 1b] ?
>8.6

Now consider C=CCCCCCCC#CCCCCCCCCCC[C@@H]1C(=O)O[C@H](C)[C@@H]1OC(C)=O [Compound 1a] and answer again.
>4.6

====

Tested on: intracellular amastigote forms of Leishmania (L.) infantum
Test: Activity against L. (L.) infantum intracellular amastigotes in infected peritoneal macrophages
Type: cell-based
Conditions: Peritoneal macrophage, 96 h, read-out: IC50 L. (L.) infantum
Protocol: L. (L.) infantum (MHOM/BR/1972/LD) was maintained through successive passages in golden hamsters up to 60–70 days post-infection. Amastigotes were harvested from spleens of infected hamsters by differential centrifugation. […] The data obtained represent the mean and standard deviation of duplicate samples from at least three independent assays. IC50 and CC50 values were calculated using sigmoid dose–response curves in Graph Pad Prism 5.0 software (GraphPad Software, San Diego, CA, USA).
experimental-endpoint: pIC50
// field semantics: pIC50 = negative decimal log of concentration (mol/L)

Field: pIC50 (intracellular amastigote forms of Leishmania (L.) infantum). Entry: C=CCCCCCCC#CCCCCCCCCCCC1=C[C@@H](C)OC1=O [Compound 1b]
4.64

====

experiment: Cytotoxicity against mammalian cells (MTT assay); assay type: cell-based; conditions: mouse, NCTC clone 929 cells, highest concentration 200 μM
experimental-endpoint: CC50 at 48 h

Would you please look over these solved cases?
INSERT INTO assay_data (smiles_representation, experimental_endpoint, experimental_value) VALUES
  ('C=CCCCCCCC#CCCCCCCCCCC[C@@H]1C(=O)O[C@H](C)[C@@H]1OC(C)=O', 'CC50 at 48 h', '> 200 µM'),
  ('C=CCCCCCCC#CCCCCCCCCCCC1=C[C@@H](C)OC1=O', 'CC50 at 48 h', '> 200 µM'),
  ('C=CCCCCCCC#CCCCCCCCCCC[C@@H]1C(=O)O[C@H](C)[C@@H]1O', 'CC50 at 48 h', '> 200 µM');

Here is the next item to consider.
What measured CC50 at 48 h goes with `CCCCCCCCC#CCCCCCCCCCC[C@@H]1C(=O)O[C@H](C)[C@@H]1O` ?
> 200 µM

Numbers sourced from paper PMC8838408.
